Tested on: MDA-MB-435 melanoma
Test: NCI-60 one-dose screen, 48 h (100 = growth as untreated, 0 = no growth, -100 = all killed)
Conditions: 10 µM unless noted
Experimental: Growth inhibition of the MDA-MB-435 human Melanoma tumor cell line is measured as a screen for anti-cancer activity. Cells are grown in 96 well plates and exposed to the test compound for 48 hours. Compounds are tested at a single concentration, which is 10^-5 M for most compounds. The reported endpoint is percent growth (GI% or GIPRCNT), where numbers from 0 - 100% represent growth inhibition, and numbers from -100% - 0 represent cell death. […]
The panel holds about 83,000 compounds, 20% with a hit somewhere; the sample as a whole holds those more often.
readout.type: growth (%)
Numbers only here, please. The scale is %.

Answered examples (4):
INSERT INTO assay_data (molecule, tested_target, scale_unit, value) VALUES
  ('O=C1CCC23OC(c4ccccc4N12)C(O)C(O)C3O (stereo not given)', 'MDA-MB-435 melanoma', '%', 110),
  ('O=C(CCl)N1CCCc2ccccc21', 'MDA-MB-435 melanoma', '%', 91.8),
  ('Nc1c(C(=O)Nc2ccccc2Cl)sc2nc3c(cc12)CN(Cc1ccccc1)CC3', 'MDA-MB-435 melanoma', '%', 107),
  ('COc1ccc2[nH]c3nc4cnccc4cc3c2c1', 'MDA-MB-435 melanoma', '%', 109);

Entry under review: C=C1C(=O)O[C@H]2[C@H]1CC/C(COC(=O)CCCCCCC(=O)OC/C1=C/CC[C@@]3(C)O[C@H]3[C@H]3OC(=O)C(=C)[C@@H]3CC1)=C\CC[C@@]1(C)O[C@@H]21 . Reported growth?
40.4
